The reported numbers originate from paper PMC10397247.

tgt: T1, 4H2354-AA
T1 chain: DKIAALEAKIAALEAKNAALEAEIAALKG
assay.method.text: two-hybrid library CCmax;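 also: natural log of median RNA to DNA barcode read ratio; higher means stronger binding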
setup.conditions: mean of both orientations
recorded.metric: interaction score

{"binder": "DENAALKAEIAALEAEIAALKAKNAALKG [4H1552-AA]", "interaction score": -1.41}
{"binder": "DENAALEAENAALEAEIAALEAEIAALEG [4H1153-AA]", "interaction score": -1.55}
{"binder": "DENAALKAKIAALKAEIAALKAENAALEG [4H1867-AA]", "interaction score": -1.35}
{"binder": "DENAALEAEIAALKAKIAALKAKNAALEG [4H1135-AA]", "interaction score": -1.64}
{"binder": "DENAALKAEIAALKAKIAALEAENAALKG [4H1636-AA]", "interaction score": -1.49}
{"binder": "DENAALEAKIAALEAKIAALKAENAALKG [4H1324-AA]", "interaction score": -1.59}
{"binder": "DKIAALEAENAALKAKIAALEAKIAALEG [4H2277-AA]", "interaction score": -1.26}
